Data origin, for the record: patent US20110038881A1

Study system: HLA-DRB4*0101 (human)
Run description: competition
Condition parameters: modification not given
Measured endpoint: pIC50
Convention used: pIC50 is expressed as -log10 of the molar concentration.

[in] Give the value of pIC50 reported for the following: HAVSDHEATLRCWAL [p39]
[out] 8.10
